Value source: the supplement of paper PMC9170038

Entries annotated with measured apparent KD of MS2 coat protein
system: MS2 coat protein; assay: apparent KD of MS2 coat protein; higher = weaker reporter binding; settings: Eterna round: R107; input ligand: theophylline 20 uM
Supply the numeric figure in nM, leaving out any unit text.

Completed entries (count: 5):
AGACGAGCAAUCAACGGGCGUUUCGUGACGCGAGGACCGGUACGGCCGCCACUCGAGUCUGGACAUGAGGAUCACCCAUGUUAUG [theeternabot_exclusion_MS2_Trp_A_46] | 23
UUGCCCAGUACGGCCGCCACUGUGUGCAGGGAGCCCAGGUCCACAUGAGGAUCACCCAUGUACAACAGGACCGGGUACUUGCAAU [Usdizaqu] | 12.7
GAUGAACUAUAUGAUACCAGACAACAUGAGGAUCACCCAUGUGAAAGUCGUCCUCUGCCUGUCCCUUGGCAGCGUAUAGUUUAUC [XTheo B #14] | 76.1
UGACAUUGCUCAGAUACCAGACAUGAGCAUCAGCCAUGUACCGAGAGUACAUGUUAAAGUGUCCCUUGGCAGCUGAGCAAUGUCU [Mod of Eli's TheoBX5 #AlternateMS2 v4] | 640
UGAUACCAGUCGGCCGCCACUAUGCUAGAUACUAGCAAUAAAGGGCGACAUGAGGAUCACCCAUGUAGGACCGGGACUGGUAUCU | 14.1

# apparent KD of MS2 coat protein measured on MS2 coat protein for item CGAGUAAGAACAAUCGAAUAACGGUUUUCGCGAGGACCGGUACGGCCGCCACUCGUGUGAUAUCACACAUGAGGAUCACCCAUGU [3'end-1] = 96.7
